Molecular target: mouse ACVR2A (mouse, UniProt P27038 20-135, limits assumed); note: test concentration or dose not given here
Sequence (P27038 20-135 limits assumed): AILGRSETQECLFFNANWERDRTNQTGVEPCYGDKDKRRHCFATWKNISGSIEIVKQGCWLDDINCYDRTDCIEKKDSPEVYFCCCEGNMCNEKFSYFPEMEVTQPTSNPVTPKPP
Experiment: ELISA
Here, each record is paired with measured optical density data.
// return numeric value only (unit: OD, not printed)

Record 375_E07 (antibody, V domains shown, VH/VL only) VH: EVQLLESGGGLVQPGGSLRLSCAASGFTFSDYSMNWVRQAPGKGLEWVAGINYNSGYKGYADSVKGRFTISRDNSKNTLYLQMNSLRAEDTAVYYCARSANWHDTALDYWGQGTLVTVSS VL: DIQMTQSPSSLSASVGDRVTITCRASQSIVTYLNWYQQKPGKAPKLLIYVVTNRESGVPSRFSGSGSGTDFTLTISSLQPEDFATYYCQQSYETPLTFGGGTKVEIK , field optical density: 3.81

Record 372_D04 (antibody, V domains shown, VH/VL only) VH: EVQLLESGGGLVQPGGSLRLSCAASGFTFSSYSMNWVRQAPGKGLEWVANINYNSGYTGYADSVKGRFTISRDNSKNTLYLQMNSLRAEDTAVYYCARSATWHDTHLDYWGQGTLVTVSS VL: DIQMTQSPSSLSASVGDRVTITCRASQSILTYLNWYQQKPGKAPKLLIYAATSLHSGVPSRFSGSGSGTDFTLTISSLQPEDFATYYCQQSYDLPLTFGGGTKVEIK , field optical density: 3.41

Record 376_H10 (antibody, V domains shown, VH/VL only) VH: EVQLLESGGGLVQPGGSLRLSCAASGFTFDSYSMNWVRQAPGKGLEWVSGINYNSGYKSYADSVKGRFTISRDNSKNTLYLQMNSLRAEDTAVYYCARSANWHDTALDYWGQGTLVTVSS VL: DIQMTQSPSSLSASVGDRVTITCRASQSILTYLNWYQQKPGKAPKLVIYAATSRHSGVPSRFSGSGSGTDFTLTISSLQPEDFATYYCQQSYDSPLTFGGGTKVEIK , field optical density: 3.29

Record 365_A10 (antibody, V domains shown, VH/VL only) VH: EVQLLESGGGLVQPGGSLRLSCAASGFTFSSYGMHWVRQAPGKGLEWVAGINYNSGYTSYADSVKGRFTISRDNSKNTLYLQMNSLRAEDTAVYYCARSATWHDTHLDYWGQGTLVTVSS VL: DIQMTQSPSSLSASVGDRVTITCRASQSILTYLNWYQQKPGKAPKLVIYAVTSLASGVPSRFSGSGSGTDFTLTISSLQPEDFATYYCQQSYDSPLTFGGGTKVEIK , field optical density: 2.49

Record 376_A10 (antibody, V domains shown, VH/VL only) VH: EVQLLESGGGLVQPGGSLRLSCAASGFTFSDYGMNWVRQAPGKGLEWVSNINYNSGYKGYADSVKGRFTISRDNSKNTLYLQMNSLRAEDTAVYYCARSANWHDTALDYWGQGTLVTVSS VL: DIQMTQSPSSLSASVGDRVTITCRASQSILSYLNWYQQKPGKAPKLLIYAATSRASGVPSRFSGSGSGTDFTLTISSLQPEDFATYYCQQSYESPLTFGGGTKVEIK , field optical density: 3.64

Record 369_B09 (antibody, V domains shown, VH/VL only) VH: EVQLLESGGGLVQPGGSLRLSCAASGFTFDSYGMHWVRQAPGKGLEWVASINYNGGYTSYADSVKGRFTISRDNSKNTLYLQMNSLRAEDTAVYYCARSATWHDTHLDYWGQGTLVTVSS VL: DIQMTQSPSSLSASVGDRVTITCRASQSILTYLNWYQQKPGKAPKLLIYAATSRASGVPSRFSGSGSGTDFTLTISSLQPEDFATYYCQQSYENPLTFGGGTKVEIK , field optical density: 1.58

Record 366_B04 (antibody, V domains shown, VH/VL only) VH: EVQLLESGGGLVQPGGSLRLSCAASGFTFDSYSMNWVRQAPGKGLEWVAGINYNGGYKGYADSVKGRFTISRDNSKNTLYLQMNSLRAEDTAVYYCARSATWHDTHLDYWGQGTLVTVSS VL: DIQMTQSPSSLSASVGDRVTITCRASQSILTYVNWYQQKPGKAPKLVIYAATSRHSGVPSRFSGSGSGTDFTLTISSLQPEDFATYYCQQSYDTPLTFGGGTKVEIK , field optical density: 3.05
